Kindly supply the reported cleaved RNA product abundance values for the records listed here.
System: Bacillus subtilis
Test: cleaved RNA product abundance (RNA/gDNA barcode ratio) relative to median wild-type variant (ratio to wild type); higher = more accumulation of the downstream cleavage product
Settings: experiment (reporter, strain, medium): exp 4a: truncated aprE reporter, strain BJT201 with 2% xylose (RNase J1 expressed); cleavage site: cggR-gapA (positions -7 to +36 mutated)
Give bare numbers.

Here are 3 sequences together with their reported answers.
[
  {
    "Sequence text": "ACAGACGAAGGAGCCGCAAAGAAGTTATTAAGGGAGGAATAATCCCTGAATATAAATATCTCTCACTTATTTAAA",
    "cleaved RNA product abundance": 0.635
  },
  {
    "Sequence text": "ACAGACGAAGGAGCCGCAAAGAAGTTATTAAGGGATGAATAATCCCTCAATATAAGTATCTCTCACTTATTTAAA",
    "cleaved RNA product abundance": 0.42
  },
  {
    "Sequence text": "ACAGACGAAGGAGCCGCAAATAAGTTTTTAAGGGATGAATAATCCCTCAATATAAATATCTCTCACTTATTTAAA",
    "cleaved RNA product abundance": 0.402
  }
]

Measured on Bacillus subtilis, "ACAGACGAAGGAGCCGCAAAGAAGTTATTAAGGGATGAATAATCCCTTAATATATATATCTCTCACTTATTTAAA" has a documented cleaved RNA product abundance of 0.895

----------
Kindly supply the reported cleaved RNA product abundance values for the records listed here.
Test system: Bacillus subtilis
Experiment: cleaved RNA product abundance (RNA/gDNA barcode ratio) relative to median wild-type variant (ratio to wild type); higher = more accumulation of the downstream cleavage product
Settings: experiment (reporter, strain, medium): exp 4a: truncated aprE reporter, strain BJT201 with 2% xylose (RNase J1 expressed); cleavage site: cggR-gapA (positions -7 to +36 mutated)
Give bare numbers.

Here are 3 sequences together with their reported answers.
[
  {
    "Sequence text": "ACAGACGAAGGAGCCGCAAAAAAGTTATTAAGGGATGAATAATCCTTCAATATAAATATCTCTCACTTATTTAAA",
    "cleaved RNA product abundance": 0.678
  },
  {
    "Sequence text": "ACAGACGAAGGAGCCGCAAATAAGTTATTAAGGGATGAATAATCCATCAATATAAATATCTCTCACTTATTTAAA",
    "cleaved RNA product abundance": 0.261
  },
  {
    "Sequence text": "ACAGACGAAGGAGCCGCAAAGAAGTTATTAAGGGATAAATAATCCCTCATTATAAATATCTCTCACTTATTTAAA",
    "cleaved RNA product abundance": 0.267
  }
]

Attention now turns to another entry.
Record "ACAGACGAAGGAGCCGCAAAGAAGTTATTAAGGGATGAGAAATCCCTCAATATAAATATCTCTCACTTATTTAAA" . Reported cleaved RNA product abundance: 0.604

----------
Test system: Bacillus subtilis
Assay: cleaved RNA product abundance (RNA/gDNA barcode ratio) relative to median wild-type variant (ratio to wild type); higher = more accumulation of the downstream cleavage product
Conditions: experiment (reporter, strain, medium): exp 8a: truncated aprE reporter, strain BJT201 with 2% xylose (RNase J1 expressed); cleavage site: glnRA (positions -5 to +31 mutated)
Kindly supply the reported cleaved RNA product abundance values for the records listed here.
Numbers only.

[
  {
    "Sequence text": "CGACATGTCCCGCTTCTTTCATTAATCCGTTAGCAACTAATTTGCTATATACATTTACCTTTTAAGAGGAGGAAT",
    "cleaved RNA product abundance": 1.85
  },
  {
    "Sequence text": "CGACATGTCCCGCTTCTTTCATTAATCCGTTTGCAACTATTTTGCTATATACATTTACCTTTTAAGAGGAGGAAT",
    "cleaved RNA product abundance": 0.859
  },
  {
    "Sequence text": "CGACATGTCCCGCTTCTTTCATTAATCCGTTAGCAACAGTTTTGATATATACATTTACCTTTTAAGAGGAGGAAT",
    "cleaved RNA product abundance": 0.429
  }
]

Provide each entry's cleaved RNA product abundance from the list below.
1. CGACATGTCCCGCTTCTTTCATTAATCAGTTAGCAACTGTTTTGCTATATAGATTTACCTTTTAAGAGGAGGAAT
2. CGACATGTCCCGCTTCTTTCATTAATCCGTTTGCAACTGTTTTTCTATATACATTTACCTTTTAAGAGGAGGAAT
3. CGACATGTCCCGCTTCTTTCATTAATCCGATAGCAACTGTTTAGCTATATACATTTACCTTTTAAGAGGAGGAAT
4. CGACATGTCCCGCTTCTTTCATTAATCCGTTAGTAAGTGTTTTGCTATATACATTTACCTTTTAAGAGGAGGAAT

A)
1. 0.842
2. 0.768
3. 0.822
4. 0.265
